biological target: hEP4 receptors (human EP4/HEK293 transfectant) (Homo sapiens, UniProt P35408); construct: expressed in transfected cells; host or cells: HEK-293, stably transfected; membrane fraction; test: [3H]-PGE2 membrane binding assay; settings: [3H]-PGE2 1 nM, human EP4/HEK293 membranes, compounds 1 nM to 1 μM; Ki by Cheng-Prusoff, pKi = -log10 Ki (M)
Sequence (P35408 whole entry): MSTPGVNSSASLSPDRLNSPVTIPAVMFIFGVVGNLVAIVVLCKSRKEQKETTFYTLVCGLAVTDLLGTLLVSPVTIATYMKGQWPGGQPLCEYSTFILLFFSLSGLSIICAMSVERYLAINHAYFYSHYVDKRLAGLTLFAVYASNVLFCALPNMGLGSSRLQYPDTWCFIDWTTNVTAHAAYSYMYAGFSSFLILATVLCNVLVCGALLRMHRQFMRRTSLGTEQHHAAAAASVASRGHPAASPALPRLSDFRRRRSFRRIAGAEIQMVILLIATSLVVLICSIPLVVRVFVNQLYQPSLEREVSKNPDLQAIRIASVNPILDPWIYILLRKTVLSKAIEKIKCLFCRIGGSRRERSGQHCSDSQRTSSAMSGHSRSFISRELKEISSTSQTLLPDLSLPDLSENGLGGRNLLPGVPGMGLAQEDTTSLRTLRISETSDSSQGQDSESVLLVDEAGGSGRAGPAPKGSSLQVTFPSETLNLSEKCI
attribute_measured: Ki (M)

// worked examples, Ki included
| molecule | attribute_measured | recorded_number |
| --- | --- | --- |
| C[C@H](NC(=O)[C@H]1CCCCN1Cc1cccc(C(F)(F)F)c1)c1ccc(C(=O)O)cc1 [Example E5] | Ki | 3.16e-08 |
| O=C(O)c1ccc(C2(NC(=O)[C@H]3CCCCN3Cc3cccc(C(F)(F)F)c3)CC2)cc1 [Example E9] | Ki | 7.94e-09 |
| Cc1cc(CN2CCCC[C@@H]2C(=O)NC2(c3ccc(C(=O)O)cc3)CC2)ccc1F [Example E12] | Ki | 3.16e-08 |

I = C[C@H](NC(=O)[C@H]1CCCN1Cc1cccc(C(F)(F)F)c1)c1ccc(C(=O)O)cc1 [Example E15]
II = C[C@H](NC(=O)[C@H]1C[C@@H](O)CN1Cc1cccc(C(F)(F)F)c1)c1ccc(C(=O)O)cc1 [Example E19]
III = O=C(O)c1ccc(C2(NC(=O)[C@H]3CCCCN3Cc3ccc(F)c(C(F)(F)F)c3)CC2)cc1 [Example E13]
Reorder the items by Ki, least to greatest. Response field: labels, in requested order.
III, I, II

* * *

target: human EP4 receptor (Homo sapiens); construct: membrane fraction; assay: cAMP assay on human EP4 membrane of transfected cells (AlphaScreen); conditions: human EP4 HEK293 cell membranes
attribute_measured: EC50 (nM)

| structure_string | unit_name | EC50 |
| --- | --- | --- |
| C[C@H](NC(=O)[C@H]1CCCCN1Cc1cccc(C(F)(F)F)c1)c1ccc(C(=O)O)cc1 | nM | 1 |
| C[C@H](NC(=O)[C@H]1CCCN1Cc1cccc(C(F)(F)F)c1)c1ccc(C(=O)O)cc1 | nM | 13.5 |
| O=C(O)c1ccc(C2(NC(=O)[C@H]3CCCCN3Cc3ccc(F)c(C(F)(F)F)c3)CC2)cc1 | nM | 8 |

I = Cc1cc(CN2CCCC[C@@H]2C(=O)NC2(c3ccc(C(=O)O)cc3)CC2)ccc1F
II = O=C(O)c1ccc(C2(NC(=O)[C@H]3CCCCN3Cc3cccc(C(F)(F)F)c3)CC2)cc1
III = C[C@H](NC(=O)[C@H]1C[C@@H](O)CN1Cc1cccc(C(F)(F)F)c1)c1ccc(C(=O)O)cc1
Reorder the items by EC50, least to greatest. Response field: labels, in requested order.
III, II, I
(III: 0.1 nM, II: 2.9 nM, I: 6 nM)
